Taken from PubChem BioAssay (NCI).

tested on: SF-295 CNS; assay: NCI tumour cell line growth inhibition, 48 h
Provide the recorded TGI for the entries that follow.

In plain terms, "O=C1/C(=C/c2ccccc2Cl)COc2ccc(Br)cc21" has a documented TGI of > 100 µM

Entry N#Cc1ccc(C2ON=C(c3ccccc3)N2C23CC4CC(CC(C4)C2)C3)cc1 (stereo not given) — recorded TGI = > 10 µM

# compound "Cn1c(=O)c2c(nc3n2CCCC(=O)N3CCCCl)n(C)c1=O" ; its TGI = > 100 µM

Entry CC1(C)C(=O)/C=C\C(=O)C(C)(C)C2=CC=C(O2)C(C)(C)C(=O)C(Br)C(Br)C(=O)C(C)(C)C2=CC=C1O2 (stereo not given) — recorded TGI = > 100 µM

Sample "Cc1cc(-c2nc3sc(C)cn3c2/C=N/N=C(N)N)c(C)s1" ; TGI observed: 3.85 µM

For this compound ( O=S1Nc2cccc(C(F)(F)F)c2S1 (stereo not given) ), measured TGI is > 100 µM

Note to self: TGI recorded for O=S(=O)(CC(Cl)c1ccccc1)c1nc2ccccc2s1 (stereo not given) was 32.6 µM

Memo: "Cc1cccc2c(N)c3cccc(C(=O)NCC[N+](C)(C)Cc4ccccc4[N+](=O)[O-])c3nc12" , reported TGI: > 50.1 µM

Please fill in: TGI reported for "COc1ccc(Nc2ncc(I)c(NCCCNC(=O)C3CCC3)n2)cc1" = > 100 µM

// field: TGI; key: "CN(C)c1ccc(N=C2N=C(Nc3ccccc3)C(=Nc3ccccc3)S2)cc1" ; value = > 100 µM

----------
test system: NCI-H226 lung; assay: NCI tumour cell line growth inhibition, 48 h
Assign TGI to each entry below.

// TGI value for COc1ccc(C2(CC(C)C)CCNC2)cc1OC (centres undefined) : > 100 µM

// TGI value for "CCOC(=O)c1c(NC(=S)Nc2ccccc2)sc2c1CCN(C)C2" : > 100 µM

molecule "c1cc[c]([Ge]([O]c2cccc3cccnc23)([c]2ccccc2)[c]2ccccc2)cc1" , TGI observed: 23 µM

Record "COC(=O)[C@H](Cc1cn(C)cn1)NC(=O)[C@H](CC(C)C)NC(=O)Nc1cc(C(F)(F)F)cc(C(F)(F)F)c1" , field TGI: > 10 µM

Reported TGI ( "Cc1ccc(-c2cc(C(=O)Nc3ccc(S(=O)(=O)N4CCCCC4)cc3)[nH]n2)c(O)c1" ) = > 100 µM

# TGI (molecule: "C/C(=N\O)c1ccc(OCc2cc(C(F)(F)F)cc(C(F)(F)F)c2)cc1" ) is > 100 µM

Value of measured TGI for the entry "O=c1[nH]c2nc3ccccc3c(=O)n2/c1=C/c1ccccc1" : > 100 µM

Value of measured TGI for the entry "O=C(Nc1ccc(Cl)c(C(F)(F)F)c1)Nc1ccc(-c2cccnc2)cc1N1CCC(CO)CC1" : 9.79 µM

Per the record, Cc1cc(C)c2c(=O)n(CC(O)CN(Cc3ccccc3)CC(O)Cn3sc4nc(C)cc(C)c4c3=O)sc2n1 (centres undefined) has TGI of 33.5 µM

----------
tested on: UACC-62 melanoma; test: NCI tumour cell line growth inhibition, 48 h
Please provide measured log10(TGI) for the entries that follow.
Hey, these are logged values: log10 of TGI, µM being the unit before logging.

The compound "O=C(Nc1ccc(I)cc1F)c1cc(Br)ccc1O" showed log10(TGI) equal to -0.09

// log10(TGI) lookup, compound = "O=C(CCN1CCCCC1)Nc1ccc2c(c1)C(=O)c1ccc(NC(=O)CCN3CCCCC3)cc1C2=O" , result: 1.54

GET /value?item= CC1(C)C(=O)/C=C\C(=O)C(C)(C)C2=CC=C(O2)C(C)(C)C(=O)C(Br)C(Br)C(=O)C(C)(C)C2=CC=C1O2 (stereo not given) &field=log10(TGI) returns 1.69

Form field log10(TGI), entry "Clc1ccc(-c2cnc3c(-c4ccnc(N5CCNCC5)c4)cnn3c2)cc1" : 0.59

For reference, reported log10(TGI) for Cc1cc(C)c2c(=O)n(CC(O)CN(Cc3ccccc3)CC(O)Cn3sc4nc(C)cc(C)c4c3=O)sc2n1 (stereo not given) stands at 1.49

log10(TGI) reading for "CCOc1ccc(-c2nc3ccc(-c4nc5ccc(N6CCN(C)CC6)cc5[nH]4)cc3[nH]2)cc1" : 0.29

// field: log10(TGI); key: "Cc1cccc2c(=O)c3c(sc12)c(NCCCNCCO)nc1ccccc13" ; value = 0.50

The reported value for "NC1CCN(c2nc3ccccc3c3c2CCCC3)CC1" in terms of log10(TGI) is 0.58

Record "CCOC(=O)c1c(CN2CCNCC2)nc2ccc(Cl)cc2c1-c1ccccc1" . Reported log10(TGI): 0.58
